FYI, the data here is from ChEMBL document CHEMBL2429837.

- study_system: Tyrosine-protein phosphatase non-receptor type 11 (Homo sapiens)
- Sequence (Q06124 whole entry): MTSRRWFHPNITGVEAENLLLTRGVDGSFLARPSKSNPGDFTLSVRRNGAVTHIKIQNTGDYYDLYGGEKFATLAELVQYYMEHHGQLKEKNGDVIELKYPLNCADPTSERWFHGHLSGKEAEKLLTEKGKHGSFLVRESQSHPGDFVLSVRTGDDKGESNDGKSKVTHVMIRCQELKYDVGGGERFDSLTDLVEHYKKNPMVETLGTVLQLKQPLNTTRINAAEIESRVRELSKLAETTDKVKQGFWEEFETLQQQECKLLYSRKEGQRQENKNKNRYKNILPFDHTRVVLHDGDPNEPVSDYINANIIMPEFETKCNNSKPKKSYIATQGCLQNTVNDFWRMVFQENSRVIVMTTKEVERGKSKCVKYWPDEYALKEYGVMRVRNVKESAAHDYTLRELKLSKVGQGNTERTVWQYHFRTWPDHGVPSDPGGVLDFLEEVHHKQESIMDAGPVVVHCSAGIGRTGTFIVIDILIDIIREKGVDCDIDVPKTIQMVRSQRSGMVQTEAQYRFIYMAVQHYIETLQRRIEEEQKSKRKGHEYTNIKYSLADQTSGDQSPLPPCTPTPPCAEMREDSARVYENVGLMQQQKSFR
- measurement_notes: Inhibition of wild type GST-tagged full-length SHP2 (unknown origin) using phospho-EGFR Asp-Ala-Asp-Glu-Tyr[PO3H2]-Leu-Ile-Pro-Gln-Gln-Gly as substrate preincubated for 30 mins before substrate addition measured after 30 mins by phosphatase activity assay
pIC50: −log10 of the molar value.
parameter_measured: pIC50

- C[C@H]1COC2=C1C(=O)C(=O)c1c2ccc2c1CCCC2(C)C [CRYPTOTANSHINONE]: 4.35

###

- study_system: Tyrosine-protein phosphatase non-receptor type 11 (Homo sapiens)
- Sequence (Q06124 whole entry): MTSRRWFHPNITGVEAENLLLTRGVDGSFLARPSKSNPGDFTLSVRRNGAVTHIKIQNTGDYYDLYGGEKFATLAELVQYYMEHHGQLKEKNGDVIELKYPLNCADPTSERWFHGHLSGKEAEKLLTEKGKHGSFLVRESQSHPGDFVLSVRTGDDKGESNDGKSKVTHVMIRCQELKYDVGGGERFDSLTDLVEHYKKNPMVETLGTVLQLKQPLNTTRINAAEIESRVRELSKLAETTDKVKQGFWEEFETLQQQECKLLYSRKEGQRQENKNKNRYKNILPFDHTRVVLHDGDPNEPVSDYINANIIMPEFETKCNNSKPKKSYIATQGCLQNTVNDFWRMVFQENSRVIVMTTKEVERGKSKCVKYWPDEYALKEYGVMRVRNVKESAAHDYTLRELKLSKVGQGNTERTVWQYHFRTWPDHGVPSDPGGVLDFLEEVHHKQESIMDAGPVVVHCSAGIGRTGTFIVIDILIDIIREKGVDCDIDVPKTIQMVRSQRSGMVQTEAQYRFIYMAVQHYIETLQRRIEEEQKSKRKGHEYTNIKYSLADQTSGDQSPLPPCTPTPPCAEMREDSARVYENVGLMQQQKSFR
- measurement_notes: Inhibition of GST-tagged SHP2 PTP domain (unknown origin) using phospho-EGFR Asp-Ala-Asp-Glu-Tyr[PO3H2]-Leu-Ile-Pro-Gln-Gln-Gly as substrate preincubated for 30 mins before substrate addition measured after 30 mins by phosphatase activity assay
This listing pairs molecules with measured IC50.
parameter_measured: IC50

* C[C@H]1COC2=C1C(=O)C(=O)c1c2ccc2c1CCCC2(C)C | 22.5 µM
* Cc1cccc2c3c(ccc12)C1=C(C(=O)C3=O)[C@@H](C)CO1 [DIHYDROTANSHINONE I] | 3.94 µM
* Cc1coc2c1C(=O)C(=O)c1c-2ccc2c1CCCC2(C)C | 2.59 µM
* Cc1coc2c1C(=O)C(=O)c1c-2ccc2c(C)cccc12 | 2.57 µM
